Give protein stability index for every item shown.
B1: SEC22B (parent)
chain: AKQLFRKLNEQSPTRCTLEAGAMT

# Variants of: B1
# test-summary: protein stability index of a GFP-peptide fusion (GPS, HEK-293T) (PSI 1-6); higher = more stable;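 note: lentivirally expressed fusions sorted by FACS into six bins by GFP to DsRed ratio, PSI derived from sequencing read proportions per bin multiplied by bin number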
# experimental-context: c terminus: a fixed tail appended
Numbers only.

INSERT INTO assay_data (sequence_data, parameter_measured, meas_value) VALUES
  ('AKQLFRKRNEQSPTRCTLEAGAMT [L8R]', 'protein stability index', 3.84),
  ('AKQLFRKLNEQSPTRCTLEAGAMQ [T24Q]', 'protein stability index', 2.39),
  ('AKQLFRNLNEQSPTRCTLEAGAMT [K7N]', 'protein stability index', 2.47);

Record protein stability index for all entries; do not skip any.
1. AKQLFRKLMEQSPTRCTLEAGAMT [N9M]
2. AKQLFRKLNEQSPIRCTLEAGAMT [T14I]
3. AKQLFRKLNEQSPTRCTLEAGAHT [M23H]
4. AKQLFEKLNEQSPTRCTLEAGAMT [R6E]
5. AKQLFRKLNEQSPSRCTLEAGAMT [T14S]

[1.85, 2.55, 2.25, 2.46, 1.89]
